As shown below, each of these binders has a reported EC50 value.
experimentalTarget: T1, human FOLR1 (recombinant antigen) (human, UniProt P15328 25-234, limits assumed)
T1 construct: also called hFOLR1
T1 sequence (P15328 25-234 limits assumed): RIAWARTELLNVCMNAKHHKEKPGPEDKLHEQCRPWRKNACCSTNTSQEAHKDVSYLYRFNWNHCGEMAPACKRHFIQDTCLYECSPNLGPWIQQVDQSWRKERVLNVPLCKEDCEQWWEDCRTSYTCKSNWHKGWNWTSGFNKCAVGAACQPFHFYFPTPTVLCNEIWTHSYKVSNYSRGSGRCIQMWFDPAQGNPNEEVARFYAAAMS
assayRemarks: ELISA on hFOLR1
Answer with a number only, understood to be in nM.

Record excerpt, results attached:
binder="Anti-FOLR1x2; Anti-DLL3x2; GGSx3 (bispecific tetravalent VHH-VHH-Fc) (bispecific antibody, not shown: a dimerising Fc or GST, homodimer; 104,263 Da; also called (GGS)3) QVQLVESGGGLVQPGGSLRLSCAASGFTVSNSVMAWYRQTPGNEREFVAIINSIGITNYADSVKGRFTISRDNSKNTLYLQMNSLRAEDTAVYVCNRNFDRIYWGQGTLVTVSSGGSGGSGGSEVQLVESGGGEVQPGGSLRLSCAASGSIFSINAMGWYRQAPGKQRELVAGFTGDTNTIYAESVKGRFTISRDNAKNTVYLQMSSLRAEDTAVYYCAADVQLFSRDYEFYWGQGTLVTVKP" endpointvalue=0.14
binder="FOLR1 VHH (VHH-Fc control) (Fc fusion, not shown: a dimerising Fc or GST) QVQLVESGGGLVQPGGSLRLSCAASGFTVSNSVMAWYRQTPGNEREFVAIINSIGITNYADSVKGRFTISRDNSKNTLYLQMNSLRAEDTAVYVCNRNFDRIYWGQGTLVTVSS" endpointvalue=0.12
binder="Anti-FOLR1x2; Anti-DLL3x2; GGGGSx3 (bispecific tetravalent VHH-VHH-Fc) (bispecific antibody, not shown: a dimerising Fc or GST, homodimer; 104,948 Da; also called (GGGGS)3) QVQLVESGGGLVQPGGSLRLSCAASGFTVSNSVMAWYRQTPGNEREFVAIINSIGITNYADSVKGRFTISRDNSKNTLYLQMNSLRAEDTAVYVCNRNFDRIYWGQGTLVTVSSGGGGSGGGGSGGGGSEVQLVESGGGEVQPGGSLRLSCAASGSIFSINAMGWYRQAPGKQRELVAGFTGDTNTIYAESVKGRFTISRDNAKNTVYLQMSSLRAEDTAVYYCAADVQLFSRDYEFYWGQGTLVTVKP" endpointvalue=0.13

// below: EC50 requested for another binder
INPUT: May I ask what EC50 has been recorded for Anti-FOLR1x2; Anti-DLL3x2; GGSx4 (bispecific tetravalent VHH-VHH-Fc) (bispecific antibody, not shown: a dimerising Fc or GST, homodimer; 104,665 Da; also called (GGS)4) QVQLVESGGGLVQPGGSLRLSCAASGFTVSNSVMAWYRQTPGNEREFVAIINSIGITNYADSVKGRFTISRDNSKNTLYLQMNSLRAEDTAVYVCNRNFDRIYWGQGTLVTVSSGGSGGSGGSGGSEVQLVESGGGEVQPGGSLRLSCAASGSIFSINAMGWYRQAPGKQRELVAGFTGDTNTIYAESVKGRFTISRDNAKNTVYLQMSSLRAEDTAVYYCAADVQLFSRDYEFYWGQGTLVTVKP ?
OUTPUT: 0.11

Data origin, for the record: patent US20260137822A1
